# test name: qHTS screen for inhibitors of ELG1-dependent DNA repair in human embryonic kidney (HEK293T) cells expressing luciferase-tagged ELG1: MMS Stimulated Assay for probe SAR
# measurement conditions: HEK293T ELG1-luciferase reporter, 16 h; series mostly up to 46.1 µM
Records with an inconclusive call do not appear. Activity calls are given as the source filed them. Calls come from the whole dose curve; as a rule, active = well fitted inhibition curve with a large enough effect; inconclusive = small, poorly fitted or top-dose-only effect; inactive = no such curve, though single readings can be large or run the other way.
endpoint label: Potency

[[record]]
chem_smiles = "Fc1cc(-c2nc(Nc3ccc(F)c(F)c3)c3ccccc3n2)ccn1"
result = "inactive"

[[record]]
chem_smiles = "Cc1noc(C)c1-c1ccc(Nc2nc(-c3ccncc3)nc3ccccc23)cc1F"
result = "18.7 µM (active)"

[[record]]
chem_smiles = "O=[N+]([O-])c1ccc(-c2nc(Nc3ccc(F)c(F)c3)c3ccccc3n2)cc1"
result = "inactive"

[[record]]
chem_smiles = "COc1ccc(-c2ccc(Nc3nc(-c4ccncc4)nc4ccccc34)cc2F)cc1F"
result = "inactive"

[[record]]
chem_smiles = "O=c1cc(-c2nc(Nc3ccc(F)c(F)c3)c3ccccc3n2)cc[nH]1"
result = "inactive"


Go through the items and report each one's Potency.
1. Fc1ccc(Nc2nc(-c3ccnc(N4CCCCC4)c3)nc3ccccc23)cc1F
2. N#Cc1cc(-c2nc(Nc3ccc(F)c(F)c3)c3ccccc3n2)ccn1

*A*
["inactive", "inactive"]

Here are 2 compounds. What values of Potency were reported for them?
1. Fc1cccc(-c2ccc(Nc3nc(-c4ccncc4)nc4ccccc34)cc2F)c1
2. Fc1ccc(-c2ccc(Nc3nc(-c4ccncc4)nc4ccccc34)cc2F)c(Cl)c1

*A*
inactive
11.8 µM (active)

* * *

# test name: qHTS screen for inhibitors of ELG1-dependent DNA repair in human embryonic kidney (HEK293T) cells expressing luciferase-tagged ELG1: MMS Stimulated Assay for probe SAR
# measurement conditions: HEK293T ELG1-luciferase reporter, 16 h; series mostly up to 46.1 µM
Inconclusive results are not listed. Calls of active or inactive are those of the source. Calls come from the whole dose curve; as a rule, active = well fitted inhibition curve with a large enough effect; inconclusive = small, poorly fitted or top-dose-only effect; inactive = no such curve, though single readings can be large or run the other way.
Your response should consist of one outcome taken from Y (active), N (inactive)

[[record]]
chem_smiles = "COc1cnccc1-c1nc(Nc2ccc(F)c(F)c2)c2ccccc2n1"
label_class = "Y"

[[record]]
chem_smiles = "COc1cc(Nc2nc(-c3ccncc3)nc3ccccc23)ccc1NS(C)(=O)=O"
label_class = "N"

[[record]]
chem_smiles = "Cc1cnccc1-c1nc(Nc2ccc(F)c(F)c2)c2ccccc2n1"
label_class = "N"

[[record]]
chem_smiles = "Fc1cc(Nc2nc(-c3ccncc3)nc3ccccc23)ccc1-c1cncnc1"
label_class = "N"

[[record]]
chem_smiles = "Fc1cc(Nc2nc(-c3ccncc3)nc3ccccc23)ccc1-c1cccc(C(F)(F)F)c1"
label_class = "Y"


*Q* Check the results log: what was the call for Fc1cc(Nc2nc(-c3ccncc3)nc3ccccc23)ccc1-c1cccnc1 ?
*A* N

*Q* Any idea what this test logged for Fc1ccc(Nc2nc(-c3ccnc(C(F)(F)F)c3)nc3ccccc23)cc1F ?
*A* Y

*Q* Query: recorded result category for CCOC(=O)c1ccc2c(c1)c(C(C)=O)c(C)n2-c1ccc(OC)cc1 in this test
*A* N

*Q* Outcome logged for Fc1ccc(Nc2nc(-c3ccncc3)nc3ccccc23)cc1F in this assay:
*A* N

*Q* Which result was noted for this molecule in the test: Fc1cc(Nc2nc(-c3ccncc3)nc3ccccc23)ccc1-c1ccc(F)c(F)c1F
*A* N

*Q* I would be grateful if you could indicate the recorded call for CN1CCN(c2cc(-c3nc(Nc4ccc(F)c(F)c4)c4ccccc4n3)ccn2)CC1 .
*A* Y

*Q* For COc1ccc(Nc2nc(-c3ccncc3)nc3ccccc23)cc1F , what call appears in the results of this test?
*A* N

*Q* How was Fc1cc(Nc2nc(-c3ccncc3)nc3ccccc23)ccc1-c1ccncc1 classified in this test?
*A* N

*Q* Entry Fc1cc(Nc2nc(-c3ccncc3)nc3ccccc23)ccc1-c1cccc(OC(F)F)c1 : call = ?
*A* N

*Q* Short answer needed: outcome of this test for COc1ccc(-c2nc(Nc3ccc(F)c(F)c3)c3ccccc3n2)cc1 ?
*A* N

*Q* Called result for CSc1ccccc1-c1ccc(Nc2nc(-c3ccncc3)nc3ccccc23)cc1F
*A* Y

*Q* Query: recorded result category for c1ccc2c(Nc3ccn[nH]3)nc(-c3ccncc3)nc2c1 in this test
*A* Y

*Q* For this molecule, state the assay outcome: Nc1cc(-c2nc(Nc3ccc(F)c(F)c3)c3ccccc3n2)ccn1
*A* N

*Q* Field: outcome | Entry: COc1cc(-c2nc(Nc3ccc(F)c(F)c3)c3ccccc3n2)c(F)cn1
*A* Y

*Q* Just curious, what result did Fc1cc(Nc2nc(-c3ccncc3)nc3ccccc23)ccc1-c1ccc2[nH]ncc2c1 get here?
*A* N

*Q* State the result this test recorded for Fc1cc(Nc2nc(-c3ccncc3)nc3ccccc23)ccc1-c1cccc(OC(F)(F)F)c1 .
*A* Y

All values here come from PubChem BioAssay AID686915.
